Where do these numbers come from? They come from patent US20080076739A1.

- Test system: MCF-7 human breast cancer cell line
- Test protocol: Cell viability by cellular ATP levels (ViaLight), MCF-7
- Assay type: cell-based
- Condition info: MCF7, MCF-7, Breast, ATP levels 72 h post-treatment, read-out: IC50 of Compound 1 tartrate
pIC50: −log10 of the molar value. Counter-ions that a name gives are not always drawn.
Readout name: pIC50

                                   compound  readout_name  measured_number
0  COC1=CC(c2cc3ccccc3[nH]2)=N/C1=C\c1[nH]c(C)cc1C [Compound 1 tartrate]         pIC50             6.22

---

- Test system: C33A cervical carcinoma cells
- Test protocol: Cell viability by cellular ATP levels (ViaLight), C33A
- Type: cell-based
- Condition info: Homo sapiens; C-33A, Cervix; ATP levels 72 h post-treatment compared to untreated cells; read-out: IC50 of Compound 1 tartrate
pIC50: −log10 of the molar value. Structures can show the parent of a compound that is named as a salt.
Readout name: pIC50

>>> df
                                   compound                target_of_assay  readout_name  measured_number
0  COC1=CC(c2cc3ccccc3[nH]2)=N/C1=C\c1[nH]c(C)cc1C [Compound 1 tartrate]  C33A cervical carcinoma cells         pIC50             6.70
